Provide the recorded Ratio of Average Peak Area Matrix Diluted/FA Diluted for the entries that follow.
- METHOD_SUMMARY: PRM target quantification of synthetic mAb peptide standards diluted with DDM, FA or cell digest matrix
- Type: physicochemical
- MEASUREMENT_CONDITIONS: 10 fmol/μl peptide mixture, complex HeLa cell lysate digest matrix vs 0.1% FA (control), triplicate
Where no end group is shown, it is not given here.
One number for each entry.

Some solved cases for reference:
>>> print(df.to_string())
                                  substance  test_value
0  NQVSLTCLVK [synthetic mAb constant region peptide standard]         1.1
1  LSCAASGITFSNAWMSWVR [synthetic mAb CDR peptide standard]        16.9
2  VVSVLTVLHQDWLNGK [synthetic mAb constant region peptide standard]        33.2
3  GLEWVAVISYDGSNK [synthetic mAb CDR peptide standard]         4.7
4  DWNQNNWF [synthetic mAb CDR peptide standard]         3.0
5  DTAVYYCASGS [synthetic mAb CDR peptide standard]         0.6

Provide the reported Ratio of Average Peak Area Matrix Diluted/FA Diluted of each entry below, same order.
1. LLIYAASNLETGVPSR (also: Arg16 stable isotope labeled, +10 Da) [synthetic mAb CDR peptide standard]
2. LMIYDVSK [synthetic mAb CDR peptide standard]
3. DIATYYCQQH [synthetic mAb CDR peptide standard]
4. TNYLTHR [synthetic mAb CDR peptide standard]
5. DNSLTAPYVFGTGTK [synthetic mAb CDR peptide standard]
6. TNYLKPTHQTNTIIDVVLSPSH [synthetic mAb constant region peptide standard]
7. LSCAASGFTFSNYAMYWVR [synthetic mAb CDR peptide standard]
8. VTISCTGSSSNIGTHY [synthetic mAb CDR peptide standard]

Reply |
1: 2.7; 2: 1.3; 3: 1.4; 4: 0.4; 5: 1.1; 6: 32.1; 7: 9.2; 8: 1.4

The recorded Ratio of Average Peak Area Matrix Diluted/FA Diluted for LLIYDASNLK [synthetic mAb CDR peptide standard] is 1.4
